system: MCF7; assay: Antiproliferative activity against human MCF7 cells assessed as cell growth inhibition incubated for 48 hrs by MTT assay; type: functional, cell-based; conditions: MCF7, 48 h
Please use MET for IC50 under 10 µM and NOT MET for everything else, ties included.

In [3]: df
Out[3]:
                            smiles_notation    class
0  COc1cc2c(-n3nnc4ccccc43)nc(-c3ccc(Br)cc3)nc2c(OC)c1OC  NOT MET
1  COc1cc2c(-n3ccnc3)nc(-c3ccc(Br)cc3)nc2c(OC)c1OC      MET
2  COc1ccc(-c2nc(-n3ccnc3)c3cc(OC)c(OC)c(OC)c3n2)cc1OC  NOT MET
3  COc1cc2c(-n3nnc4ccccc43)nc(-c3ccccc3)nc2c(OC)c1OC  NOT MET
4  COc1ccc(-c2nc(-n3nnc4ccccc43)c3cc(OC)c(OC)c(OC)c3n2)cc1  NOT MET
5  COc1cc2c(-n3nnc4ccccc43)nc(-c3ccc(Cl)cc3)nc2c(OC)c1OC  NOT MET
6  COc1cc2c(-n3ccnc3)nc(-c3ccccc3)nc2c(OC)c1OC  NOT MET
7  COc1cc2c(N3CCOCC3)nc(-c3ccccc3)nc2c(OC)c1OC  NOT MET
8  COc1cc2c(-n3cnnc3)nc(-c3ccccc3C(F)(F)F)nc2c(OC)c1OC  NOT MET
9  COc1cc2c(-n3cnnc3)nc(-c3ccc(Br)cc3)nc2c(OC)c1OC      MET

====

tested on: MCF7; test: Antiproliferative activity against human MCF7 cells assessed as cell growth inhibition incubated for 48 hrs by MTT assay; format: functional, cell-based; conditions: MCF7, 48 h
pIC50: −log10 of the molar value.
Recorded Metric: pIC50

                            smiles_notation  reported
0  COc1cc2c(-n3cnnc3)nc(-c3ccccc3)nc2c(OC)c1OC    < 4.60
1  COc1cc(-c2nc(-n3nnc4ccccc43)c3cc(OC)c(OC)c(OC)c3n2)cc(OC)c1OC    < 4.60
2  COc1ccc(-c2nc(-n3cnnc3)c3cc(OC)c(OC)c(OC)c3n2)cc1    < 4.60

Where do these numbers come from? They come from ChEMBL document CHEMBL5321192.
